# experimental-protocol: NCI Yeast Anticancer Drug Screen. Data for the mec2-1 strain (AID 157)
# test-parameters: S. cerevisiae mec2-1 strain, at 3.7 µM, active compounds read high
This is part of a sample that, as a whole, favours compounds with a hit. Of some 79,000 tested, about 15% had one in any assay.
Catalogue of growth inhibition readings, one per entry.
Report the figure in % without appending any unit label.

Known growth inhibition results, listed for orientation:
O=C1NC(=O)c2ccc([N+](=O)[O-])c3cccc1c23: 20
O=C(COC(=O)c1ccccc1)c1ccc(Br)cc1: 7
O=C(NO)Nc1cc(Cl)cc(Cl)c1: 11

Ask: Query: growth inhibition; subject: "O=C1CC(=O)c2ccccc21"
Reply: 2

Ask: Reported growth inhibition, molecule "CC(C)OC(=O)Nc1ccc2nc(-c3cscn3)[nH]c2c1" : ____
Reply: 5

Ask: GET /values?readout=growth inhibition&item= "CN(C)[C@@H]1C(=O)C(C(N)=O)=C(O)[C@@]2(O)C(=O)C3=C(O)c4c(O)cccc4C[C@H]3C[C@@H]12"
Reply: -4

###

# experimental-protocol: NCI Yeast Anticancer Drug Screen. Data for the rad50 strain (AID 155);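 further: 0% = growth of vehicle-only cultures of the same strain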
# test-parameters: S. cerevisiae rad50 strain growth inhibition; at 5.0 µM (retest, dose inferred, filed as 0.5); active compounds read high
# Procedure: Growth inhibition of yeast strains with defined genetic alterations is measured as a screen for potential anti-cancer activity. Selected strains with alterations in DNA damage repair or cell cycle control were exposed to compounds and growth inhibition was measured relative to vehicle treated controls. The strain used in this assay is rad50
This is part of a sample that, as a whole, favours compounds with a hit. Of some 79,000 tested, about 15% had one in any assay.
value-type: growth inhibition (%)
Reply with just the number (in %).

Before answering, review these 5 worked examples.
COc1c(O)c(C=O)c(Br)c(C=O)c1O: 16
CC(=O)ON=C1C=CC(=C(C#N)c2ccc(Cl)cc2)C=C1: 25
CCOC(=O)c1ccc(NC(=O)O/N=C(/Cl)C(C)C)cc1: 5
Cc1csc(=S)n1OC(=O)NC1CCCCC1: 94
O=Cc1ccc2c(c1)C(=O)c1ccccc1C2=O: -11

Ask: Find the recorded growth inhibition belonging to "CN1C(=O)c2ccc3ccccc3c2C1=O" and report it.
Reply: 4

Ask: State the recorded growth inhibition for this entry: "CC(C)(CCCCC(C)(C)[N+](C)(C)C)[N+](C)(C)C"
Reply: 4

###

# experimental-protocol: NCI Yeast Anticancer Drug Screen. Data for the rad50EPP+ strain (AID 151);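 further: 0% = growth of vehicle-treated control cultures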
# test-parameters: S. cerevisiae rad50 mutant strain, at 100.0 µM
Compounds without any hit were thinned out: in the full panel of roughly 79,000, 15% have a hit. Calls of active or inactive are those of the source. Rule as the data show it: active = growth inhibition above about 70%; inactive = the rest.
Hi! Could you answer with just one of these? true for active, false for inactive

Before answering, review these 5 worked examples.
CC1=NOC(=O)/C1=C/c1ccc2c(c1)OCO2: true
CCc1ccc2c(c1)N(CC(C)CN(C)C)c1ccccc1S2 (stereo unspecified): true
CS(=O)(=O)SCc1ccc([N+](=O)[O-])cc1: true
OCC(CO)C(c1cccc2ccccc12)c1cccc2ccccc12: false
c1ccc(CCN2CCc3ccccc3C2)cc1: false

Ask: Name the outcome recorded for CC1CC[C@]2(C(=O)O)CCC3(C)C(=CC(=O)C4[C@@]5(C)CCC(=O)C(C)(C)C5CC[C@]43C)[C@@H]2[C@H]1C (stereo partly specified) in the assay.
Reply: false

Ask: What is the recorded call for this compound in the test? "CCCC/C=C/C(C)(C(=O)OCC)C(=O)OCC"
Reply: false

Ask: Fill in: this test's call for "CNC(=O)OCc1c(COC(=O)NC)c(-c2ccc(Cl)c(Cl)c2)n2c1SCC2" is ___
Reply: false

Ask: Per the assay record, what outcome was assigned to "O=[N+]([O-])c1ccc(N/N=C/Cc2ccccc2)c([N+](=O)[O-])c1" ?
Reply: false

Ask: Dear all, I need the recorded test outcome for "CN1C(=O)c2ccc3ccccc3c2C1=O" , thank you.
Reply: false

Ask: Test call for this compound, please: "CC(C)OC(=O)Nc1ccc2nc(-c3cscn3)[nH]c2c1"
Reply: false

###

# experimental-protocol: NCI Yeast Anticancer Drug Screen. Data for the mlh1 rad18 strain (AID 175)
# test-parameters: S. cerevisiae mlh1 rad18 strain growth inhibition; at 50.0 µM (retest, dose inferred, filed as 5.0)
Compounds without any hit were thinned out: in the full panel of roughly 79,000, 15% have a hit. Calls of active or inactive are those of the source. No stated cut-off is given here; in the data, active means growth inhibition above about 70%; inactive means the rest.
Entry note: the call must match one of YES = active, NO = inactive

Ask: Per the assay record, what outcome was assigned to "COc1cc(CSc2ccc(O)cc2)cc(O)c1O" ?
Reply: NO

Ask: So what was the verdict on "CSc1nnc(SC)nn1" in this test?
Reply: YES

Ask: Given CCOC(=O)C1=C(C)NC(C)=C(C(=O)OCCNC(=O)c2ccc(N=[N+]=[N-])cc2)C1c1ccccc1C(F)(F)F (stereo unspecified) , state the outcome it received in this test.
Reply: NO

Ask: Would you mind telling me which call this test gave "O=C1N=C2SC=C(NC(=S)Nc3ccccc3)N2NC12c1ccccc1-c1ccccc12" ?
Reply: NO

Ask: Could you kindly confirm the outcome this assay logged for "CCOC(=O)c1[nH]n(-c2ccccc2)c(=O)c1C=NC(=S)C(N)=S" ?
Reply: YES

Ask: Which result was noted for this compound in the test: "Cc1ccccc1N=Cc1cc(Cl)ccc1O"
Reply: NO

###

growth inhibition: recorded values
# experimental-protocol: NCI Yeast Anticancer Drug Screen. Data for the rad50 strain (AID 155);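 further: 0% = growth of vehicle-only cultures of the same strain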
# test-parameters: S. cerevisiae rad50 strain growth inhibition; at 33.0 µM; active compounds read high
This is part of a sample that, as a whole, favours compounds with a hit. Of some 79,000 tested, about 15% had one in any assay. The source made the active and inactive calls. No stated cut-off is given here; in the data, active means growth inhibition above about 70%; inactive means the rest.

Illustrative cases are given below, each with its answer.
O=c1[nH]c2ccc(Cl)cc2o1: -19% (inactive)
Cc1ccc(CC2(OCCN(C)C)CCC(C(C)(C)C)CC2)cc1 (stereo not given): 64% (inactive)

Ask: Tell me the measured growth inhibition of "Cc1cc(NCCCCCCCCNc2cc(C)nc3cc(N)ccc23)c2ccc(N)cc2n1" , please.
Reply: 97% (active)

###

# experimental-protocol: NCI Yeast Anticancer Drug Screen. Data for the bub3 strain (AID 167)
# test-parameters: S. cerevisiae bub3 mutant strain, at 33.0 µM, active compounds read high
This is part of a sample that, as a whole, favours compounds with a hit. Of some 79,000 tested, about 15% had one in any assay.
value-type: growth inhibition (%)
Field: numeric (%). Do not append units.

CCCCC(CC)C(=O)[O][Sn]([CH2]CCC)([CH2]CCC)[O]C(=O)C(CC)CCCC (configuration not stated): 95
COc1cc(C2c3cc4c(cc3OC(OC(C)=O)C2C)OCO4)cc(OC)c1OC (configuration not stated): 38
Cc1cc(C(C)(C)C)c(OCCCN2CCOCC2)c(C(C)(C)C)c1: 6
O=C1C=C(Cl)C(=O)N1c1cccc(Cl)c1: 99
CCN(CC)CCOc1cc(C)c2cc(Cc3ccccc3)ccc2n1: 38

Ask: Would you mind telling me what growth inhibition value was observed for "NC1CCCCC1N.Nc1c(N=Nc2ccc(-c3ccc(N=Nc4cc(S(=O)(=O)[O-])c5ccccc5c4N)cc3)cc2)cc(S(=O)(=O)[O-])c2ccccc12.[OH3+].[OH3+].[Pt+4]" ?
Reply: 90

Ask: What measured growth inhibition goes with Cn1c(=O)c2c(nc(N)n2C2OC(CO)C(O)C2O)n(C)c1=O (configuration not stated) ?
Reply: 15

Ask: Give the measured growth inhibition of "Cc1ccccc1N=Cc1cc(Cl)ccc1O" .
Reply: 16

Ask: Which growth inhibition value belongs to "Nc1n[n+]([O-])c2ccc(Cl)cc2[n+]1[O-]" ?
Reply: 81

Ask: Entry "COc1ccc2c(c1)n([O-])c1ccccc1[n+]2=O" : reported growth inhibition = ?
Reply: 60

Ask: Which value of growth inhibition has been reported for CC(=O)OCC(C)Cc1cc2c(cc1Br)OCO2 (configuration not stated) in the records?
Reply: 2

Ask: What value of growth inhibition has been recorded for this entry: "O=C1C=C(Cl)C(=O)C(c2ccc(Cl)cc2)=C1"
Reply: 98

Ask: Query (compound): "COC(=O)/C=C(/C(=O)OC)C(Cl)(Cl)Cl" ; field requested: growth inhibition
Reply: 81

Ask: I have this compound here, "CCC(=O)c1cc(C(=O)C(=S)SC)cc(C(=O)C(=S)SC)c1" , and I need its recorded growth inhibition.
Reply: 98

Ask: Can you share its growth inhibition? I mean this compound: "CN(C)CCNc1ccc2ncnc3c2c1C(=O)c1ccccc1-3"
Reply: 21

Ask: Which growth inhibition is listed for "COC(=O)Oc1cc(Cl)c(Cl)cc1Cl" ?
Reply: 3

Ask: Please look up its growth inhibition: "S=c1[nH]c2cc3ccccc3cc2[nH]1"
Reply: 7

Ask: For the compound shown here, "O=[N+]([O-])c1cc(F)c(F)cc1Sc1cc(F)c(F)cc1[N+](=O)[O-]" , give the reported growth inhibition.
Reply: 98

Ask: Would you mind telling me what growth inhibition value was observed for "COc1cc2ccnc(-c3c4ccccc4c(N)c4c(OC)c(OC)ccc34)c2cc1OC" ?
Reply: -4

Ask: # growth inhibition lookup, item "c1ccc2c(c1)sc1c3cnccc3ccc21"
Reply: 34

Ask: Look up growth inhibition: "COc1ccc(/C=C/C(=O)c2ccccc2)cc1OC"
Reply: 62

Ask: Item COC(=O)C1=C(C(=O)OC)C(C(=O)OC)C(C(=O)OC)C(C(=O)OC)(C(=O)OC)C(C(=O)OC)=C1C(=O)OC (configuration not stated) has what recorded growth inhibition?
Reply: 18

These data points were gathered from PubChem BioAssay (NCI).
